These entries and their values trace back to paper PMC8258866.

molecular target: BET family proteins; assay: BROMOscan bromodomain profiling, BET family; details: across BET family proteins
Experimental endpoint: Kd

{"Test smiles": "CCS(=O)(=O)Nc1cc(-c2cn(C)c3c(=O)[nH]ccc23)cc2c1ccn2C(C)(c1ccccn1)c1ccccn1", "Target entity": "BET family proteins", "Result": "< 1 nM"}

====

assay: Kinetic solubility; format: physicochemical; settings: PBS, pH 7.4, solubility (PBS, pH 7.4), 27 tested as HCl salt

{"Compound": "CCS(=O)(=O)Nc1cc(-c2cn(C)c3c(=O)[nH]ccc23)cc2c1ccn2C(C)(c1ccccn1)c1ccccn1 [Compound 27]", "solubility": "73.4 µM"}
{"Compound": "CC(=O)[C@H]1CC[C@H]2[C@@H]3CCC4=CC(=O)CC[C@]4(C)[C@H]3CC[C@]12C [progesterone, reference compound]", "solubility": "22.4 µM"}
